- Test system: TO-3-N3 (biotin conjugate)
- experiment.description: pull-down binding Z-score (relative to library population); higher = stronger binding
- condition.label: RNA library: Library-2
In this scheme, each record receives a class according to its pull-down binding Z-score; the ranges are low: < -0.5; moderate: ≥ -0.5 and < 0.08; high: ≥ 0.08

[[record]]
sequence = "GGGAGUGGUUCCAUCACGCCUCCUCAC [hsa-mir-483]"
class_label = "moderate"

[[record]]
sequence = "GACCCUGUGGGUU [SHAPE_invitro_SARS-CoV-2_Motif_242]"
class_label = "high"

[[record]]
sequence = "CUUUGUGAUUUUAUGAGAACAAAG [hsa-mir-3173]"
class_label = "low"

[[record]]
sequence = "UUUUCCCUUUCUCUUGCCCUGAAA [hsa-mir-4509-1_4509-3_4509-2]"
class_label = "moderate"

[[record]]
sequence = "ACAACAGGAGUCACCUUUUGU [DMSMaPseq_invitro_SARS-CoV-2_Motif_108]"
class_label = "low"

[[record]]
sequence = "UCCAGCUGUGUGAUAUUCUGCUG [hsa-mir-19b-1]"
class_label = "high"

[[record]]
sequence = "GUCUUGGGGUGGGGGAUCAAGAC [hsa-mir-642a]"
class_label = "high"


* * *

- System: TO-N3 (biotin conjugate)
- experiment.description: pull-down binding Z-score (relative to library population); higher = stronger binding
- condition.label: RNA library: Library-2
readout.label: pull-down binding Z-score

[[record]]
sequence = "AACUGGUAAUACACUUCAGUGUAUAAUGCUAGUU"
readout_label = "pull-down binding Z-score"
measured_value = -1.55

[[record]]
sequence = "CUGAGAGGUUUACAUUUCUC [hsa-mir-128-1]"
readout_label = "pull-down binding Z-score"
measured_value = -0.648

[[record]]
sequence = "GGGUUUACAAACAAUUUGAUACUUAUAACCU [DMSMaPseq_invitro_SARS-CoV-2_Motif_347]"
readout_label = "pull-down binding Z-score"
measured_value = -0.828

[[record]]
sequence = "GCCAGUGUUCAAGGGCCCCUCCUCUAGUACUCCCUGUUUGUGUUCUGCCACUGA [hsa-mir-6857]"
readout_label = "pull-down binding Z-score"
measured_value = 1.1

[[record]]
sequence = "GGGCUUUCUGGUUUUAUUUUAAGCCC [hsa-mir-186]"
readout_label = "pull-down binding Z-score"
measured_value = 0.261

[[record]]
sequence = "AAUGACUCAUAGUCAA [hsa-mir-4475]"
readout_label = "pull-down binding Z-score"
measured_value = 0.374

[[record]]
sequence = "AAGAGGUAAGAAGAAGUGAAGCCCUCUU [hsa-mir-4778]"
readout_label = "pull-down binding Z-score"
measured_value = -0.292

[[record]]
sequence = "GCUGCAGAUCUUUGUCUAAGCAGC [hsa-mir-4498]"
readout_label = "pull-down binding Z-score"
measured_value = -0.555

[[record]]
sequence = "GAAGCCGCUCCCACCUGACCCUCACGGCCUC [hsa-mir-3605]"
readout_label = "pull-down binding Z-score"
measured_value = 1.33

[[record]]
sequence = "GUUGGGCAUCCACAGUCUCCCACC [hsa-mir-1911]"
readout_label = "pull-down binding Z-score"
measured_value = 0.206

[[record]]
sequence = "AGUUCAAGAAAUUCAACU"
readout_label = "pull-down binding Z-score"
measured_value = -0.478

[[record]]
sequence = "GGCAGGGUCCUCCAGCUCAUUCCUCCUGCC [hsa-mir-6829]"
readout_label = "pull-down binding Z-score"
measured_value = 0.491

[[record]]
sequence = "CAGCCUGGGGCAUCGGUUG [hsa-mir-5572]"
readout_label = "pull-down binding Z-score"
measured_value = 2.01

[[record]]
sequence = "ACAACCCUUAAGGGUGU [SHAPE_invivo_SARS-CoV-2_Motif_115]"
readout_label = "pull-down binding Z-score"
measured_value = -1.19

[[record]]
sequence = "UUCAUGUUCACUGAAAGGUAGAUUUUAAAAACAUGAA [hsa-mir-4790]"
readout_label = "pull-down binding Z-score"
measured_value = -0.371

[[record]]
sequence = "GACUGCUCAAGGUCAAAGGGGUC [hsa-mir-3918]"
readout_label = "pull-down binding Z-score"
measured_value = 0.367

[[record]]
sequence = "CAACGUAAGUUG [DMSMaPseq_invitro_SARS-CoV-2_Motif_215]"
readout_label = "pull-down binding Z-score"
measured_value = -0.732

[[record]]
sequence = "CUAACUGAGAAUAAAUAUUCUCAAUUAG"
readout_label = "pull-down binding Z-score"
measured_value = -1.59

[[record]]
sequence = "GUACAUGGGCACACUUUCUUAUGAACAAUUUAAGAAAGGUGUUCAGAUAC [DMSMaPseq_invitro_SARS-CoV-2_Motif_106]"
readout_label = "pull-down binding Z-score"
measured_value = -0.353

[[record]]
sequence = "GGGUUGGGUUGGGUUGGGUUGGGUUGGGUUGGGUUGGGUU [G4_r(GGGUU)8]"
readout_label = "pull-down binding Z-score"
measured_value = 7.46

[[record]]
sequence = "UUUUUCUUUACUUUUAAUGGCAAA [hsa-mir-548u]"
readout_label = "pull-down binding Z-score"
measured_value = -1.35

[[record]]
sequence = "UAGGGCGCGGAGGGCGGACCGGGAA [hsa-mir-638]"
readout_label = "pull-down binding Z-score"
measured_value = 5.19

[[record]]
sequence = "UCCCAGGCCCUUCCUCCAAUACUGGGA [hsa-mir-4666b]"
readout_label = "pull-down binding Z-score"
measured_value = -0.383

[[record]]
sequence = "GGGAGUCUUCGAGCUCUC [IAV_invivo_NP_5_Motif_24+IAV_invivo_NP_5_Motif_24]"
readout_label = "pull-down binding Z-score"
measured_value = -0.358

[[record]]
sequence = "GGGAAUAUAAUCUC [IAV_invivo_NA_6_Motif_2+IAV_invivo_NA_6_Motif_2]"
readout_label = "pull-down binding Z-score"
measured_value = 1.33

[[record]]
sequence = "UCAUACUGAAAGCGAACUUCAGUGUGA [IAV_invivo_NS1_NEP_8_Motif_9+IAV_invivo_NS1_NEP_8_Motif_9]"
readout_label = "pull-down binding Z-score"
measured_value = -0.352

[[record]]
sequence = "GCGCUGCCAGAAACUGGCGGCGC [mismatch-UG]"
readout_label = "pull-down binding Z-score"
measured_value = 0.624

[[record]]
sequence = "AUCGGUCGAGAGCGUCCUGGCUGAU [hsa-mir-3178]"
readout_label = "pull-down binding Z-score"
measured_value = 0.526

[[record]]
sequence = "CUGUCUGUUGUAUAAAAGAAAAGAUCG [hsa-mir-517a]"
readout_label = "pull-down binding Z-score"
measured_value = 0.594

[[record]]
sequence = "AACGAACUUUAAAAUCUGUGUGGCUGUCACUCGGCUGCAUGCUUAGUGCACUCACGCAGUAUAAUUAAUAACUAAUUACUGUCGUU"
readout_label = "pull-down binding Z-score"
measured_value = -0.781

[[record]]
sequence = "CUGUUUGGAUGACAG"
readout_label = "pull-down binding Z-score"
measured_value = -0.871

[[record]]
sequence = "GUGUAGGGGUGGCUACAC [hsa-mir-4717]"
readout_label = "pull-down binding Z-score"
measured_value = 0.346

[[record]]
sequence = "CAUCAAAACCAAGCAAGAGGUCAUUUAUUGAAGAUCUACUUUUCAACAAAGUGACACUUGCAGAUG [DMSMaPseq_invitro_SARS-CoV-2_Motif_426]"
readout_label = "pull-down binding Z-score"
measured_value = -0.92

[[record]]
sequence = "GGCUGUGGCCUAGGGCAAGCCACAAAGCC [hsa-mir-4642]"
readout_label = "pull-down binding Z-score"
measured_value = 0.183

[[record]]
sequence = "CUAACAGGCCCCUGUCACCAUUAG [hsa-mir-5579]"
readout_label = "pull-down binding Z-score"
measured_value = -0.073

[[record]]
sequence = "AUGCUGACGAUGGUCAUUUUGUCAGCAU [IAV_invivo_M1_M2_7_Motif_18+IAV_invivo_M1_M2_7_Motif_18]"
readout_label = "pull-down binding Z-score"
measured_value = -0.322

[[record]]
sequence = "UCCUGAUGGUCCCCUCCCCAGGG [hsa-mir-185]"
readout_label = "pull-down binding Z-score"
measured_value = 0.275

[[record]]
sequence = "CCCGAGGCCCUUCAUGCUGCCCAGCUCGGG [hsa-mir-486-1]"
readout_label = "pull-down binding Z-score"
measured_value = 0.727

[[record]]
sequence = "UCUGUUUGUUUUCUCUUAAACA [hsa-mir-519d]"
readout_label = "pull-down binding Z-score"
measured_value = -0.828

[[record]]
sequence = "UGCAGUUAGUGAAGCAGCUUAGAAUCUACUGCC [hsa-mir-18b]"
readout_label = "pull-down binding Z-score"
measured_value = 0.989

[[record]]
sequence = "ACAUUUUAUCUUACUAAUGAUGU [SHAPE_invivo_SARS-CoV-2_Motif_191]"
readout_label = "pull-down binding Z-score"
measured_value = -0.428


Just for reference, the supplement of paper PMC11865577 is where these values come from.
